Test system: DMS-114
measurement_description: NCI tumour cell line growth inhibition, 48 h
Activity calls are given as the source filed them. Rule as the data show it: active = GI50 up to about 1.1 µM and inactive = higher.
measured_property: GI50

Reference set, count: 5
| compound | GI50 |
| --- | --- |
| COC(=O)C(=O)Cc1nc2ccccc2s1 | > 100 µM (inactive) |
| CCc1nc2c(O)ccc(O)c2nc1C | 18.2 µM (inactive) |
| O=C1C(Cl)C(c2cc(Br)ccc2O)N1n1cnc2ccccc2c1=O (stereo unspecified) | 5.46 µM (inactive) |
| N#Cc1c2nc3ccccc3nc2n2ccccc12 | > 100 µM (inactive) |
| COc1ccc2nc3c(C(=O)NCCN(C)C)cccc3nc2c1 | 5.82 µM (inactive) |

Exam item: Return the recorded GI50 value; entry: CC(CCCOC(c1ccccc1)(c1ccccc1)c1ccccc1)OC(=O)Nc1cc([N+](=O)[O-])cc([N+](=O)[O-])c1 (stereo unspecified)
Marked response: 30.6 µM (inactive)

---

Tested on: MDA-MB-435
measurement_description: NCI tumour cell line growth inhibition, 48 h
Calls of active or inactive are those of the source. Rule as the data show it: active = GI50 up to about 1.1 µM and inactive = higher. Where a SMILES comes first, the peptide text is derived from it. [ ]: non-standard residue; d: D form. The star is where a group is joined. NMeAc5c = CNC1(C(=O)O)CCCC1; Boc = CC(C)(C)OC(=O)*; OBn = c1ccc(CO*)cc1
Item-by-item account of GI50

| compound | system_under_test | GI50 |
| --- | --- | --- |
| COC(=O)Cc1c(-c2c(CC(=O)OC)c3ccccc3n2C2OC(COC(C)=O)C(OC(C)=O)C(OC(C)=O)C2OC(C)=O)[nH]c2ccccc12 (stereo unspecified) | MDA-MB-435 | > 100 µM (inactive) |
| C[n+]1c2ccccc2c(C(=O)Nc2ccc(S(=O)(=O)Nc3ncccn3)cc2)c2ccccc21 | MDA-MB-435 | 42.3 µM (inactive) |
| CN(C(=O)C(Cc1ccccc1)NC(=O)OC(C)(C)C)C1(C(=O)NC(Cc2ccccc2)C(=O)OCc2ccccc2)CCCC1 (stereo not drawn) (Boc-Phe-[NMeAc5c]-Phe-OBn; configuration not given here) | MDA-MB-435 | 37.3 µM (inactive) |
| CCCCCCNC(=O)c1cnc(Cl)cn1 | MDA-MB-435 | 15.6 µM (inactive) |
| CCc1n[nH]c(=O)n1O | MDA-MB-435 | > 100 µM (inactive) |

As a next step, examine the compound that follows.
Exam item: Return the recorded GI50 value; entry: C=CCSc1nc2c(N)ncnc2n1C1OC(CO)C(O)C1O (stereo unspecified)
Marked response: > 100 µM (inactive)

---

System: SF-268
measurement_description: NCI tumour cell line growth inhibition, 48 h
Activity calls are given as the source filed them. Rule as the data show it: active = GI50 up to about 1.1 µM and inactive = higher.
measured_property: GI50

Exam item: Return the recorded GI50 value; entry: "CC(=O)Oc1ccc(-c2nnc(-c3ccc(OC(C)=O)cc3)nn2)cc1"
Marked response: > 100 µM (inactive)

---

Tested on: A498
measurement_description: NCI tumour cell line growth inhibition, 48 h
Calls of active or inactive are those of the source. Cut-off read from the data, not from the text of the source: active = GI50 up to about 1.1 µM and inactive = higher.
Write down the outcome that applies. Available outcomes: yes = active, no = inactive

| molecule | system_under_test | assigned_category |
| --- | --- | --- |
| CN(C)c1ccc(/C=C2\N=C(N/N=C/c3ccc(N(C)C)cc3)NC2=O)cc1 | A498 | no |
| N#CC1=C(c2ccccc2)NNC(c2ccc(Cl)cc2)CC1=O (stereo not given) | A498 | no |
| O=[N+]([O-])c1cc(F)ccc1Sc1ccccc1 | A498 | no |
| CC(=O)Oc1ccc(-c2nnc(-c3ccc(OC(C)=O)cc3)nn2)cc1 | A498 | no |
| Cc1ccc(NC(=O)CSc2nnc(Cc3ccccc3)o2)cc1 | A498 | no |

Exam item: For CC(=O)Oc1ccc2c(c1)CC[C@@H]1C2CC[C@]2(C)C(=O)NC(=O)CC12 (stereo not given in full) , which call appears in the assay record?
Marked response: no

Exam item: For "CC1(C)[C@@H]2CC[C@@]1(C)[C@@H]1O[C@@H](O[C@@H](CN)c3cc(Cl)c(OCc4ccccc4)c(OCc4ccccc4)c3)C[C@H]21" , which call appears in the assay record?
Marked response: yes

Exam item: For CC1C(=O)OC2CC[N+]3([O-])CC=C(COC(=O)C(C)(O)C1(C)O)C23 (stereo not given) , which call appears in the assay record?
Marked response: no

Exam item: For "C=CCSC1=N/C(=C\c2ccc(OC)cc2)C(=O)N1CC=C" , which call appears in the assay record?
Marked response: no

Exam item: For "CCOC(=O)NC(=O)c1cn(CCN(CCO)C(=O)NCCCCCCNC(=O)N(CCO)CCn2cc(C(=O)NC(=O)OCC)c(=O)[nH]c2=O)c(=O)[nH]c1=O" , which call appears in the assay record?
Marked response: no
